Experiment: Metabolic stability in mouse liver microsomes assessed as extraction ratio
Assay type: ADME, Microsome
Conditions: read-out: ERH
OUTCOME MEASURE: hepatic extraction ratio

structure_smiles_string=CC(=O)N1CCC(n2cc(-c3cnc(N)c4oc(-c5cccc6ncsc56)cc34)cn2)CC1 measured_result=0.68
structure_smiles_string=CC(=O)N1CCC(n2cc(-c3cnc(N)c4oc(-c5csc6ccccc56)cc34)cn2)CC1 measured_result=0.85
structure_smiles_string=CC(=O)N1CCC(n2cc(-c3cnc(N)c4oc(-c5cccc6ccccc56)cc34)cn2)CC1 measured_result=0.77
structure_smiles_string=CC(=O)N1CCC(n2cc(-c3cnc(N)c4oc(-c5cn(C)c6cnccc56)cc34)cn2)CC1 measured_result=0.91

###

Target: TAK1/TAB1 (Homo sapiens)
Sequence (Q15750 whole entry, the tested form may be a part): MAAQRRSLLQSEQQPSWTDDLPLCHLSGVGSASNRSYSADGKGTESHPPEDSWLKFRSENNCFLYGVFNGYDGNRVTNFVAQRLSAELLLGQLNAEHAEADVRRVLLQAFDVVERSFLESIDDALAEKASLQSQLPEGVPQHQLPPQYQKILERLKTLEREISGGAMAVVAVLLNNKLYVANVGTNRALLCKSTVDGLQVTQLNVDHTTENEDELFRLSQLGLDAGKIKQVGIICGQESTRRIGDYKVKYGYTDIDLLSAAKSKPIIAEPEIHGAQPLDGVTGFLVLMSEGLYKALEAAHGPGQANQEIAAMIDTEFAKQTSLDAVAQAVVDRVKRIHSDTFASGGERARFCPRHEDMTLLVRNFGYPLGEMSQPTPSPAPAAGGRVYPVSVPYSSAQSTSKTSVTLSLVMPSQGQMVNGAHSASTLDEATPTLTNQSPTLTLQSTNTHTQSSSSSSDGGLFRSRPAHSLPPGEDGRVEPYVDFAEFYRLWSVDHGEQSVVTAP
Sequence (O43318 whole entry, the tested form may be a part): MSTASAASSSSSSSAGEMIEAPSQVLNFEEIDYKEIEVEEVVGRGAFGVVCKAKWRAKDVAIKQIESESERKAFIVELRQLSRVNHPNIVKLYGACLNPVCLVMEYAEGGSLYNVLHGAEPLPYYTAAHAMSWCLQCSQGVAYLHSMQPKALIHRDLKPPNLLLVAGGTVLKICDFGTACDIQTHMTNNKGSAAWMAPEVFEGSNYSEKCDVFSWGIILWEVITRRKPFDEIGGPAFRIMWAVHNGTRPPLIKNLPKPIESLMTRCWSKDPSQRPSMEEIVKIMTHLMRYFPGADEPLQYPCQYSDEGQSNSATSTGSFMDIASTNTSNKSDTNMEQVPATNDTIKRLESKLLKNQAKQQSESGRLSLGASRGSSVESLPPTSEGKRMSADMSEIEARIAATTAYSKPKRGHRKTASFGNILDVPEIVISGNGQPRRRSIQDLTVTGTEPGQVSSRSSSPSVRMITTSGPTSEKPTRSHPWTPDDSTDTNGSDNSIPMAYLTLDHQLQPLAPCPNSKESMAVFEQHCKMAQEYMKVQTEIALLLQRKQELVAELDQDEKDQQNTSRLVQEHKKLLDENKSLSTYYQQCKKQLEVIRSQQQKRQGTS
Experiment: Inhibition of truncated TAK1-TAB1(unknown origin) using MKK7 as substrate by ALPHAScreen assay in presence of ATP
pIC50: −log10 of the molar value.
OUTCOME MEASURE: pIC50

structure_smiles_string=COCc1ccccc1-c1cc2c(-c3cnn(C4CCN(C(C)=O)CC4)c3)cnc(N)c2o1 tested_system="TAK1/TAB1 (Homo sapiens)" outcome_measure=pIC50 measured_result=5.85
structure_smiles_string=CC(=O)N1CCC(n2cc(-c3cnc(N)c4oc(-c5cccc(C(N)=O)c5)cc34)cn2)CC1 tested_system="TAK1/TAB1 (Homo sapiens)" outcome_measure=pIC50 measured_result=6.28
structure_smiles_string=CC(=O)N1CCC(n2cc(-c3cnc(N)c4oc(-c5csc6cnccc56)cc34)cn2)CC1 tested_system="TAK1/TAB1 (Homo sapiens)" outcome_measure=pIC50 measured_result=7.52
structure_smiles_string=CC(=O)N1CCC(n2cc(-c3cnc(N)c4oc(-c5cccnc5)cc34)cn2)CC1 tested_system="TAK1/TAB1 (Homo sapiens)" outcome_measure=pIC50 measured_result=6.15
structure_smiles_string=CC(=O)N1CCC(n2cc(-c3cnc(N)c4oc(C5=CCCC5)cc34)cn2)CC1 tested_system="TAK1/TAB1 (Homo sapiens)" outcome_measure=pIC50 measured_result=5.92

(I) CC(=O)N1CCC(n2cc(-c3cnc(N)c4oc(-c5ccccc5)cc34)cn2)CC1
(II) CC(=O)N1CCC(n2cc(-c3cnc(N)c4oc(-c5csc6ccccc56)cc34)cn2)CC1
(III) CC(=O)N1CCC(n2cc(-c3cnc(N)c4oc(-c5cccc(S(N)(=O)=O)c5)cc34)cn2)CC1
(IV) CC(=O)N1CCC(n2cc(-c3cnc(N)c4oc(-c5cccc6ncsc56)cc34)cn2)CC1
(V) CC(=O)N1CCC(n2cc(-c3cnc(N)c4oc(-c5cn[nH]c5)cc34)cn2)CC1
Query block: Given 5 compounds, produce a descending ranking by pIC50. # answer = labels listed in requested order
Result block: IV, V, II, I, III
(IV: 7.89, V: 6.89, II: 6.47, I: 5.96, III: 5.74)

###

Biological target: Mitogen-activated protein kinase kinase kinase 7 (Homo sapiens, UniProt O43318)
Sequence (O43318 whole entry): as the sequence (O43318 whole entry, the tested form may be a part) above
Experiment: Inhibition of TAK1 in human HCT116 cells assessed as inhibition of TNF-alpha-stimulated JNK phosphorylation
pIC50: −log10 of the molar value.
OUTCOME MEASURE: pIC50

structure_smiles_string=CC(=O)N1CCC(n2cc(-c3cnc(N)c4oc(-c5cccc6ccccc56)cc34)cn2)CC1 measured_result=5.92

(A) CC(=O)N1CCC(n2cc(-c3cnc(N)c4oc(-c5ccc(O)cc5)cc34)cn2)CC1
(B) CC(=O)N1CCC(n2cc(-c3cnc(N)c4oc(-c5cccc(C(N)=O)c5)cc34)cn2)CC1
Query block: Endpoint returns the identifier whose pIC50 is numerically larger, either A or B . Refer to your chosen item by its label in the answer.
Result block: A
(A: 6.30, B: 5.51)

###

Target: TAK1/TAB1 (Homo sapiens)
Experiment: Inhibition of truncated TAK1-TAB1(unknown origin) using MKK7 as substrate by ALPHAScreen assay in presence of ATP
OUTCOME MEASURE: IC50 (µM)

(P) CC(=O)N1CCC(n2cc(-c3cnc(N)c4oc(-c5cccc(N)c5)cc34)cn2)CC1
(Q) Nc1ncc(-c2cnn(C3CCNCC3)c2)c2cc(-c3ccccc3)oc12
Query block: # min-compare on IC50 between P and Q Respond with the label that goes with your answer.
Result block: P

(a) CC(=O)N1CCC(n2cc(-c3cnc(N)c4oc(-c5cccc(CN)c5)cc34)cn2)CC1
(b) CC(=O)N1CCC(n2cc(-c3cnc(N)c4oc(-c5ccc(N)cc5)cc34)cn2)CC1
Query block: Which item exceeds the other in IC50, a or b ? Write the label of whichever entry you select.
Result block: b
(b: 1.8 µM, a: 0.79 µM)

(A) CC(=O)N1CCC(n2cc(-c3cnc(N)c4oc(-c5cccc(N(C)C)c5)cc34)cn2)CC1
(B) CC(=O)N1CCC(n2cc(-c3cnc(N)c4oc(-c5ccc(O)cc5)cc34)cn2)CC1
Query block: Which value of IC50 is numerically greater: that of A or that of B ? Give the label under which the chosen entry appears.
Result block: A
(A: 2.4 µM, B: 0.27 µM)

###

Molecular target: Mitogen-activated protein kinase kinase kinase 7 (Homo sapiens)
Experiment: Inhibition of TAK1 in human HCT116 cells assessed as inhibition of TNF-alpha-stimulated JNK phosphorylation
OUTCOME MEASURE: IC50 (nM)

For orientation, consider the following solved cases.
structure_smiles_string=CC(=O)N1CCC(n2cc(-c3cnc(N)c4oc(-c5cccc([N+](=O)[O-])c5)cc34)cn2)CC1 outcome_measure=IC50 measured_result=200
structure_smiles_string=COCc1ccccc1-c1cc2c(-c3cnn(C4CCN(C(C)=O)CC4)c3)cnc(N)c2o1 outcome_measure=IC50 measured_result=1800
structure_smiles_string=CSc1cccc(-c2cc3c(-c4cnn(C5CCN(C(C)=O)CC5)c4)cnc(N)c3o2)c1 outcome_measure=IC50 measured_result=1200
structure_smiles_string=CC(=O)N1CCC(n2cc(-c3cnc(N)c4oc(-c5cn(C)c6cnccc56)cc34)cn2)CC1 outcome_measure=IC50 measured_result=340
structure_smiles_string=CC(=O)N1CCC(n2cc(-c3cnc(N)c4oc(-c5cccc(OC(F)(F)F)c5)cc34)cn2)CC1 outcome_measure=IC50 measured_result=1800

(P) CC(=O)N1CCC(n2cc(-c3cnc(N)c4oc(-c5cccc(N(C)C)c5)cc34)cn2)CC1
(Q) CC(=O)c1ccccc1-c1cc2c(-c3cnn(C4CCN(C(C)=O)CC4)c3)cnc(N)c2o1
Query block: Which gives the smaller IC50 number: P or Q ? Please indicate the selected item by its label.
Result block: P
(P: 690 nM, Q: 3100 nM)

(a) CC(=O)N1CCC(n2cc(-c3cnc(N)c4oc(-c5ccc(N)cc5)cc34)cn2)CC1
(b) CC(=O)N1CCC(n2cc(-c3cnc(N)c4oc(-c5cccc(CN)c5)cc34)cn2)CC1
Query block: Of a and b , which one carries the higher reported IC50? I would appreciate it if you answered with the label of your choice.
Result block: b

###

Target: TAK1/TAB1 (Homo sapiens)
Assay: Inhibition of truncated TAK1-TAB1(unknown origin) using MKK7 as substrate by ALPHAScreen assay in presence of ATP
OUTCOME MEASURE: IC50 (µM)

As a guide, the following entries are already answered.
structure_smiles_string=CC(=O)N1CCC(n2cc(-c3cnc(N)c4oc(-c5ccc(CO)cc5)cc34)cn2)CC1 outcome_measure=IC50 measured_result=2.8
structure_smiles_string=CC(=O)N1CCC(n2cc(-c3cnc(N)c4oc(-c5ccc(S(C)(=O)=O)cc5)cc34)cn2)CC1 outcome_measure=IC50 measured_result=25.7
structure_smiles_string=CSc1ccccc1-c1cc2c(-c3cnn(C4CCN(C(C)=O)CC4)c3)cnc(N)c2o1 outcome_measure=IC50 measured_result=0.43
structure_smiles_string=CC(=O)c1cccc(-c2cc3c(-c4cnn(C5CCN(C(C)=O)CC5)c4)cnc(N)c3o2)c1 outcome_measure=IC50 measured_result=2.8

(P) CC(=O)N1CCC(n2cc(-c3cnc(N)c4oc(C5CCCC5)cc34)cn2)CC1
(Q) CSc1cccc(-c2cc3c(-c4cnn(C5CCN(C(C)=O)CC5)c4)cnc(N)c3o2)c1
Query block: Which gives the smaller IC50 number: P or Q ? Select an item and report its label.
Result block: P
